The measured values listed here are drawn from PubChem BioAssay (NCI).

system: MOLT-4 leukemia; assay: NCI-60 one-dose screen, 48 h (100 = growth as untreated, 0 = no growth, -100 = all killed); conditions: 10 µM unless noted
The panel holds about 83,000 compounds, 20% with a hit somewhere; the sample as a whole holds those more often. Activity calls are given as the source filed them. The calls were made as follows: active = growth percent below 10; inactive = the rest.
Assay Metric: growth

See these solved cases before continuing.
CCCCCCCCCCCCCC[P+](CCCCCC)(CCCCCC)CCCCCC = 51.6% (inactive)
N#CCCNc1ccccc1 = 79.3% (inactive)
CS(=O)(=O)CCN1CC2CCCC(C2)C1 = 102% (inactive)

Form field: reported growth of COC(=O)[C@@H](C)C[C@H](Cc1ccccc1)NC(=O)c1csc([C@@H](C[C@H](C(C)C)N(C)C(=O)[C@@H](NC(=O)CN(C)C)C2CC2)OC(C)=O)n1
16.6% (inactive)

Request the reported growth associated with CC[C@H](C)[C@@H]([C@@H](CC(=O)N1CCC[C@H]1[C@H](OC)[C@@H](C)C(=O)N[C@H](C)[C@@H](O)c1ccccc1)OC)N(C)C(=O)[C@@H](NC(=O)[C@@H](NC)C(C)C)C(C)C
18.3% (inactive)

Which value of growth has been reported for O=Cc1cn(Cc2ccc(Cl)cc2)c2ccccc12 in the records?
90.1% (inactive)

Which growth is reported for this compound? COC(=O)[C@@H](C)C[C@H](Cc1cn(C)c2ccccc12)NC(=O)c1csc([C@@H](C[C@H](C(C)C)N(C)C(=O)[C@@H](NC(=O)[C@H]2CCCCN2C)C(C)C)OC(C)=O)n1
12.8% (inactive)

Fill blank: measured growth of the compound O=C1CC2(CC3(Cl)C(Cl)=C(Cl)C2(Cl)C3(Cl)Cl)C(=O)O1 (centres undefined) is ____.
96.5% (inactive)

Which growth is reported for this compound? COC(=O)C12CC(NC(=O)c3csc([C@@H](C[C@H](C(C)C)N(C)C(=O)[C@@H](NC(=O)[C@H]4CCCCN4C)C(C)C)OC(C)=O)n3)(C1)C2
14.3% (inactive)

---

tested on: RPMI-8226 leukemia; experiment: NCI-60 one-dose screen, 48 h; details: 10 µM unless noted
Compounds without any hit were thinned out: in the full panel of roughly 83,000, 20% have a hit. Calls of active or inactive are those of the source. The calls were made as follows: active = growth percent below 10; inactive = the rest.
Lab note: assign the record to one of y = active, n = inactive

Worked set:
COC(=O)[C@@]1(C)CC[C@]2(C)CC[C@]3(C)C4=CC=C5C(=CC(=O)C(O)=C5C)[C@]4(C)CC[C@@]3(C)[C@@H]2C1 = y
Cc1ccc2c(C(C[N+](=O)[O-])c3cccs3)c(-c3ccccc3)[nH]c2c1 (centres undefined) = n
CCCCCCCCCCCCCCCCCC1OC[C@@H](COC(=O)O[C@@H](C(=O)O[C@H]2C[C@@]3(O)[C@@H](OC(=O)c4ccccc4)[C@@H]4[C@]5(OC(C)=O)CO[C@@H]5C[C@H](O)[C@@]4(C)C(=O)[C@H](OC(C)=O)C(=C2C)C3(C)C)[C@@H](NC(=O)c2ccccc2)c2ccccc2)O1 (some centres undefined) = n

Shift focus to the following entry.
Assay outcome for CC(=O)[O][Hg][c]1c(N)c(C)cc(C)c1F : what was it?
y

---

This listing pairs compounds with measured growth.
test system: NCI-H322M lung; assay: NCI-60 one-dose screen, 48 h (100 = growth as untreated, 0 = no growth, -100 = all killed); details: 10 µM unless noted
About 83,000 compounds went through this panel and 20% of them were active in at least one assay; those are over-represented in the sample as a whole.
Quick note: give the figure in %, leave out the unit.

Worked cases, answers included:
CC(C)(N)Cc1ccccc1 = 105
COc1cc(NCCCN=C(N)N)c2ncccc2c1 = 74
CCOP(=O)(Nc1ccc2c(c1)/C(=N/NC(N)=S)c1ccccc1-2)OCC = 132
COC(=O)CCc1c[nH]c2ccc(N(CCCl)CCCl)cc12 = 95.1
CC1(C)N=C(N)N=C(N)N1c1ccc(CCC(=O)Nc2ccc(S(=O)(=O)F)cc2)c(Cl)c1 = 57.9

Okay, next one:
I would be grateful if you could share the reported growth for CC12CCC=CC1CCC1C2CCC2(C)C(c3ccc(=O)oc3)CCC12O (stereo unspecified) .
-22.5

---

system: SK-OV-3 ovarian; assay: NCI-60 one-dose screen, 48 h; details: 10 µM unless noted
About 83,000 compounds went through this panel and 20% of them were active in at least one assay; those are over-represented in the sample as a whole. Active and inactive are the calls of the source. Rule for the calls: active = growth percent below 10; inactive = the rest.
Your answer must be one of the following: active, inactive

Reference set (3 entries):
CCOC(=O)[C@@H](C)C[C@H](Cc1ccccc1)NC(=O)c1csc([C@@H](C[C@H](C(C)C)N(C)C(=O)[C@@H](NC(=O)[C@H]2CCCCN2C)C(C)(C)CC)OC(C)=O)n1 = inactive
COc1cc2ncnc(Nc3ccc(F)c(Cl)c3)c2cc1OCC(=O)N1CCN(C)CC1 = inactive
CN(CCCCN(C)CCOS(C)(=O)=O)CCOS(C)(=O)=O = inactive

For the next question, use this compound.
# lookup: test call for C1CCC([PH+](C2CCCCC2)C2CCCCC2[PH+](C2CCCCC2)C2CCCCC2)CC1.[Au].[CH-]1CCCCC1CC1CCCC[N-]1 (centres undefined)
active

---

system: PC-3 prostate; experiment: NCI-60 one-dose screen, 48 h (100 = growth as untreated, 0 = no growth, -100 = all killed); settings: 10 µM unless noted
This is part of a sample that, as a whole, favours compounds with a hit. Of some 83,000 tested, about 20% had one in any assay.
Assay Metric: growth (%)
Report the figure in % without appending any unit label.

Which growth value is on record for C/C(=C\c1cc(C(F)(F)F)nn1CCNC(=O)OC(C)(C)C)[C@@H]1C[C@@H]2O[C@]2(C)CCC[C@H](C)[C@H](O)[C@@H](C)C(=O)C(C)(C)[C@@H](O)CC(=O)O1 ?
32

Give its growth value. Item: C/C=C(\C)C(=O)O[C@@H]1C(O)[C@H]2OC(COC(=O)CCC(=O)CCCCCC[C@H](CCCCC)O[C@@H]3OC(C)[C@H](OC(C)=O)C(O)[C@H]3O2)[C@H]1OC(=O)/C=C/c1ccccc1 (stereo partly drawn)
21.3

Returns the measured growth for the input molecule. Input: CCCCCCCC[n+]1ccc2ccccc2c1
35

Please report the recorded growth for C#Cc1ccc2c(c1)C(c1ccccc1F)=NCC(=O)N2C .
55.8

Looking for the measured growth of C[C@@]12CC[C@@H](O)C[C@@H]1CC[C@H]1[C@H]2CC[C@@]2(C)[C@H](c3ccc(=O)oc3)CC[C@@]12O , can you help?
-22.5

What growth value was documented for this molecule, CC(C)=CCC[C@H](C(=O)O)[C@@H]1CC[C@]2(C)C3=C(CC[C@@]12C)[C@@]1(C)CC[C@H](O)C(C)(C)[C@@H]1CC3 ?
84.8

Please report the recorded growth for CN1CCCCC1C(C)(O)c1ccccc1 (stereo not drawn) .
82.1

Fill blank: measured growth of the molecule NC(=Nc1ccccc1)N[N+](=O)[O-] is ____.
94.2

---

compounds and their reported growth
system: SNB-19 CNS; assay: NCI-60 one-dose screen, 48 h (100 = growth as untreated, 0 = no growth, -100 = all killed); conditions: 10 µM unless noted
The panel holds about 83,000 compounds, 20% with a hit somewhere; the sample as a whole holds those more often.
The figure you give is taken to be in %; do not add the unit.

COc1cccc(/C=C/[N+](=O)[O-])c1 = 71.8
COC(=O)CCC1=C(C)c2cc3[n-]c(cc4nc(cc5[n-]c(cc1n2)c(CCC(=O)OC)c5C)C=C4C)cc3C.[Cd+2] = 73.9
COc1ccc([As]=[As]c2ccc(OC)c(NCS(=O)(=O)O)c2)cc1NCS(=O)(=O)O (centres undefined) = 0.15
NC(=O)CNc1ccc([As]=[As]c2ccc(NCC(N)=O)cc2)cc1 (centres undefined) = 48.6
ClCCN(CCCl)c1ccc(/C=N/Nc2ncnc3nc[nH]c23)cc1 = 82

Entry O=[N+]([O-])c1cc(I)cc([N+](=O)[O-])c1 : reported growth = ?
113

Can you look up the measured growth of COc1cc2ncnc(Nc3ccc(F)c(Cl)c3)c2cc1OCC(=O)N1CCN(C)CC1 for me?
79.6

I would be grateful if you could share the reported growth for C[C@]12CC[C@H]3[C@@H](CC4SC(N)=NC45C/C(=N/NC(N)=O)CC[C@]35C)[C@@H]1CCC2=O (some centres undefined) .
-9.98

Need growth of COC(=O)[C@@H](C)C[C@H](Cc1ccccc1)NC(=O)c1csc([C@@H](C[C@H](C(C)C)N(C)C(=O)[C@H](C)NC(=O)[C@H]2CCCN2C)OC(C)=O)n1 , thanks.
51
